test: Plasma pharmacokinetics of DEBIO1143 in patients (LC-MS/MS); assay type: in vivo, human; details: human, plasma, oral, 400 mg, day 1, n=3, mean (SD)
Measured Endpoint: AUC(0-t) (ng·h/mL)
One number for each entry, in ng·h/mL.

# input Which AUC(0-t) is reported for this compound? CN[C@@H](C)C(=O)N[C@H]1CN(C(=O)CC(C)C)CC[C@H]2CC[C@@H](C(=O)NC(c3ccccc3)c3ccccc3)N2C1=O [DEBIO1143]
# output 25000

----------
assay: Plasma pharmacokinetics of DEBIO1143 in patients (LC-MS/MS); format: in vivo, human; settings: human, plasma, oral, 180 mg, day 5, n=7, mean (SD)
Measured Endpoint: AUC(0-t) (ng·h/mL)
Give bare numbers, in ng·h/mL.

# input Field request: AUC(0-t) | item: CN[C@@H](C)C(=O)N[C@H]1CN(C(=O)CC(C)C)CC[C@H]2CC[C@@H](C(=O)NC(c3ccccc3)c3ccccc3)N2C1=O
# output 7210
